Test system: Klebsiella pneumoniae
Assay: Antimicrobial activity against Klebsiella pneumoniae isolate 11 expressing beta-lactamase Oxa-48, TEM-1 and Oxa-1 by Etest
Type: functional
Please respond with reported log10 MIC for every item in the list.
Please note: log10 values; quantity MIC; unit µg/mL.

Form field - read-out: log10 MIC; system: Klebsiella pneumoniae; submitted item: CC(C)(O/N=C(\C(=O)N[C@@H]1C(=O)N2C(C(=O)[O-])=C(C[n+]3ccccc3)CS[C@H]12)c1csc(N)n1)C(=O)O
0.30

Form field - read-out: log10 MIC; system: Klebsiella pneumoniae; submitted item: C[C@@H](O)[C@H]1C(=O)N2C(C(=O)O)=C(SCCNC=N)C[C@H]12 [IMIPENEM ANHYDROUS]
0.90

Form field - read-out: log10 MIC; system: Klebsiella pneumoniae; submitted item: CO[C@@]1(NC(=O)Cc2cccs2)C(=O)N2C(C(=O)O)=C(COC(N)=O)CS[C@@H]21
1.20

Form field - read-out: log10 MIC; system: Klebsiella pneumoniae; submitted item: CO/N=C(\C(=O)N[C@@H]1C(=O)N2C(C(=O)O)=C(COC(C)=O)CS[C@H]12)c1csc(N)n1
0.60

Form field - read-out: log10 MIC; system: Klebsiella pneumoniae; submitted item: C[C@H]1[C@H](NC(=O)/C(=N\OC(C)(C)C(=O)O)c2csc(N)n2)C(=O)N1S(=O)(=O)O
-0.30

Form field - read-out: log10 MIC; system: Klebsiella pneumoniae; submitted item: CO/N=C(\C(=O)N[C@@H]1C(=O)N2C(C(=O)[O-])=C(C[N+]3(C)CCCC3)CS[C@H]12)c1csc(N)n1
0.60

====

Tested on: Escherichia coli
Assay: Antimicrobial activity against Escherichia coli J53 harboring beta-lactamase TEM-1, CTX-M-15 and Oxa-1 by Etest
Type: functional
measure name: MIC (µg/mL)
The figure you give is taken to be in µg/mL; do not add the unit.

What MIC value was documented for this compound, CO[C@@]1(NC(=O)Cc2cccs2)C(=O)N2C(C(=O)O)=C(COC(N)=O)CS[C@@H]21 ?
2

What MIC value was documented for this compound, CO/N=C(\C(=O)N[C@@H]1C(=O)N2C(C(=O)[O-])=C(C[N+]3(C)CCCC3)CS[C@H]12)c1csc(N)n1 ?
4

What MIC value was documented for this compound, C[C@H]1[C@H](NC(=O)/C(=N\OC(C)(C)C(=O)O)c2csc(N)n2)C(=O)N1S(=O)(=O)O ?
8

What MIC value was documented for this compound, CC(C)(O/N=C(\C(=O)N[C@@H]1C(=O)N2C(C(=O)[O-])=C(C[n+]3ccccc3)CS[C@H]12)c1csc(N)n1)C(=O)O ?
128

====

Please respond with reported MIC for every item in the list.
Test system: Klebsiella pneumoniae
Assay: Antimicrobial activity against Klebsiella pneumoniae isolate 11 expressing beta-lactamase Oxa-48, TEM-1 and Oxa-1 by Etest
Assay type: functional

Form field - read-out: MIC; system: Klebsiella pneumoniae; submitted item: C[C@@H](O)[C@H]1C(=O)N2C(C(=O)O)=C(S[C@@H]3CN[C@H](C(=O)Nc4cccc(C(=O)O)c4)C3)[C@H](C)[C@H]12
> 32 µg/mL

Form field - read-out: MIC; system: Klebsiella pneumoniae; submitted item: CC1(C)S[C@@H]2[C@H](NC(=O)[C@H](N)c3ccc(O)cc3)C(=O)N2[C@H]1C(=O)O [AMOXICILLIN]
> 512 µg/mL

Form field - read-out: MIC; system: Klebsiella pneumoniae; submitted item: CC1(C)S[C@@H]2[C@H](NC(=O)[C@H](C(=O)O)c3ccsc3)C(=O)N2[C@H]1C(=O)O [TICARCILLIN]
> 512 µg/mL

Form field - read-out: MIC; system: Klebsiella pneumoniae; submitted item: CCN1CCN(C(=O)N[C@@H](C(=O)N[C@@H]2C(=O)N3[C@@H]2SC(C)(C)[C@@H]3C(=O)O)c2ccccc2)C(=O)C1=O [PIPERACILLIN]
> 512 µg/mL

====

System: Escherichia coli
Assay: Antimicrobial activity against Escherichia coli J53 harboring beta-lactamase TEM-1, CTX-M-15 and Oxa-1 by Etest
Format: functional
Please respond with reported MIC for every item in the list.

What MIC value was documented for this compound, CCN1CCN(C(=O)N[C@@H](C(=O)N[C@@H]2C(=O)N3[C@@H]2SC(C)(C)[C@@H]3C(=O)O)c2ccccc2)C(=O)C1=O ?
> 512 µg/mL

What MIC value was documented for this compound, CO[C@@]1(NC(=O)C(C(=O)O)c2ccc(O)cc2)C(=O)N2C(C(=O)O)=C(CSc3nnnn3C)CO[C@@H]21 (stereo partly specified) ?
< 0.5 µg/mL

What MIC value was documented for this compound, CC1(C)S[C@@H]2[C@H](NC(=O)[C@H](C(=O)O)c3ccsc3)C(=O)N2[C@H]1C(=O)O ?
> 514 µg/mL

What MIC value was documented for this compound, CC1(C)S[C@@H]2[C@H](NC(=O)[C@H](N)c3ccc(O)cc3)C(=O)N2[C@H]1C(=O)O ?
> 512 µg/mL

What MIC value was documented for this compound, C[C@@H](O)[C@H]1C(=O)N2C(C(=O)O)=C(SCCNC=N)C[C@H]12 [IMIPENEM ANHYDROUS] ?
< 1 µg/mL

What MIC value was documented for this compound, CO/N=C(\C(=O)N[C@@H]1C(=O)N2C(C(=O)O)=C(COC(C)=O)CS[C@H]12)c1csc(N)n1 ?
> 32 µg/mL
